B1: HDV Ribozyme (parent)
chain: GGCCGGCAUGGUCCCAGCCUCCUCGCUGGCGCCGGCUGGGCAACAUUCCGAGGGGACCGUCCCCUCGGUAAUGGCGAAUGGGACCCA

Variants of: B1
test_protocol: self-cleavage, relative activity (ratio to wild type); higher = more cleavage; co-transcriptional
Class field: derived from self-cleavage; ranges group 1: < 0.2; group 2: ≥ 0.2 and < 0.6; group 3: ≥ 0.6

[[record]]
mutation_label = "U27C C49G"
assigned_class = "group 3"


Band of G59U U65G ?
group 3

Band for the recorded self-cleavage of C3G C84G ?
group 2

Which self-cleavage band matches G29A G55A ?
group 2

State the band of G34U A71G
group 1

Which of the defined bands does the recorded self-cleavage of G1A C41U sit within?
group 2

Kindly state the category for this variant: U60C U65C
group 3

# bin lookup: classify A51G C57U by its self-cleavage
group 3
